Would you kindly list koff for each of these binders?
Molecular target: T1, Human β-Klotho (human, UniProt Q86Z14 1-996)
T1 construct: human β-Klotho, recombinant protein bought from R&D Systems; source: bought: R&D Systems (cat# 5889-KB-050)
T1 sequence (looked up): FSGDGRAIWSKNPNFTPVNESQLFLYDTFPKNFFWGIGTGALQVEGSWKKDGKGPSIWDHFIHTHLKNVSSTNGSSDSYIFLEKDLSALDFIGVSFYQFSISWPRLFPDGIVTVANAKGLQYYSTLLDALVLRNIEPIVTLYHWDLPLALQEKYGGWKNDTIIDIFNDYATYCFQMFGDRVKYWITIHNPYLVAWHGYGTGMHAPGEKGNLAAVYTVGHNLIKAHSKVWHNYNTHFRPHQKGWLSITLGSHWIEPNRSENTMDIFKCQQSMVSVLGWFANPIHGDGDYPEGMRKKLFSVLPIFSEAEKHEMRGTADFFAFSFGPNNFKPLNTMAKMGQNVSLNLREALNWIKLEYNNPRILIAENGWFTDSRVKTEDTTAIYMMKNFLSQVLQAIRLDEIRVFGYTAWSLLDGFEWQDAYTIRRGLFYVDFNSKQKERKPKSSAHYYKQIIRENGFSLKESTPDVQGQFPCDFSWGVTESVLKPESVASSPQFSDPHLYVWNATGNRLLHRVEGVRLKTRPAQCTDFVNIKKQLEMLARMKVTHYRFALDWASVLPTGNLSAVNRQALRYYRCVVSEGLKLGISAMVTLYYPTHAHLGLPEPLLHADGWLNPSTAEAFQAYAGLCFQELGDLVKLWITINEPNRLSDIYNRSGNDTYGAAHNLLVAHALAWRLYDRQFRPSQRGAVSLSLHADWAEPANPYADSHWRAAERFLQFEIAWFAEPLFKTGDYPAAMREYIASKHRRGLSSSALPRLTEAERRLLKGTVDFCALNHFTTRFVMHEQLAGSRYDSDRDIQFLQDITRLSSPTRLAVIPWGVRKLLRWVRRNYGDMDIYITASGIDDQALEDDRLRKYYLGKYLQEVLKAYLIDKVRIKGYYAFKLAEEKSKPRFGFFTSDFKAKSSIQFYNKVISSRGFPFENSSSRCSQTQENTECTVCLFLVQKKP
Assay: SPR; Biacore 8K; FGF21s covalently immobilised on CM5 chip by amine coupling (about 700-900 RU); human β-Klotho injected as 2.5-fold series 250 to 1.024 nM at 30 μl/min; 25 °C; HBS-EP+ (10 mM HEPES pH 7.4, 150 mM NaCl, 3 mM EDTA, 0.05% polysorbate 20); global fit, 1:1 Langmuir model
Conditions: both partners purified
Supply the numeric figure in s⁻¹, leaving out any unit text.

Entry htFGF21 variant with S195G, P199G, and S200G mutations (htM3) (ligand, human, UniProt Q9NSA1 33-209, looked up, human FGF21 with S195G, P199G and S200G; A Gly from the TEV site probably remains at the N-terminus (surmised); not shown: Trx, N-terminal, cleaved) DSSPLLQFGGQVRQRYLYTDDAQQTEAHLEIREDGTVGGAADQSPESLLQLKALKPGVIQILGVKTSRFLCQRPDGALYGSLHFDPEACSFRELLLEDGYNVYQSEAHGLPLHLPGNKSPHRDPAPRGPARFLPLPGLPPALPEPPGILAPQPPDVGSSDPLGMVGGGQGRSPSYAS , koff reported as 0.000785

Entry wild type human FGF21 purified without heating (nFGF21) (ligand, UniProt Q9NSA1 33-209, looked up, human fibroblast growth factor 21 (FGF21), residues 33-209; differs only in that the 100 °C step was left out of the purification; The TEV site ENLYFQ/G stood between Trx and FGF21, so a Gly probably remains before residue 33 after cleavage (surmised); also called fibroblast growth factor 21; wild type FGF21; source: E. coli Rosetta (DE3), purified without heating; not shown: Trx, N-terminal, …) DSSPLLQFGGQVRQRYLYTDDAQQTEAHLEIREDGTVGGAADQSPESLLQLKALKPGVIQILGVKTSRFLCQRPDGALYGSLHFDPEACSFRELLLEDGYNVYQSEAHGLPLHLPGNKSPHRDPAPRGPARFLPLPGLPPALPEPPGILAPQPPDVGSSDPLSMVGPSQGRSPSYAS , koff reported as 0.00159

Entry wild type human FGF21 purified through heat treatment (htFGF21) (ligand, UniProt Q9NSA1 33-209, looked up, human fibroblast growth factor 21 (FGF21), residues 33-209; The TEV site ENLYFQ/G stood between Trx and FGF21, so a Gly probably remains before residue 33 after cleavage (surmised); also called htWT; wild type htFGF21; not shown: Trx, N-terminal, cleaved) DSSPLLQFGGQVRQRYLYTDDAQQTEAHLEIREDGTVGGAADQSPESLLQLKALKPGVIQILGVKTSRFLCQRPDGALYGSLHFDPEACSFRELLLEDGYNVYQSEAHGLPLHLPGNKSPHRDPAPRGPARFLPLPGLPPALPEPPGILAPQPPDVGSSDPLSMVGPSQGRSPSYAS , koff reported as 0.00155

Entry htFGF21 variant with S195G, P199G, S200G, Q201H, and A208T mutations (htM5) (ligand, human, UniProt Q9NSA1 33-209, looked up, human FGF21 with S195G, P199G, S200G, Q201H and A208T; A Gly from the TEV site probably remains at the N-terminus (surmised); also called M5 variant; not shown: Trx, N-terminal, cleaved) DSSPLLQFGGQVRQRYLYTDDAQQTEAHLEIREDGTVGGAADQSPESLLQLKALKPGVIQILGVKTSRFLCQRPDGALYGSLHFDPEACSFRELLLEDGYNVYQSEAHGLPLHLPGNKSPHRDPAPRGPARFLPLPGLPPALPEPPGILAPQPPDVGSSDPLGMVGGGHGRSPSYTS , koff reported as 0.000707

Entry htFGF21 variant with Q201H and A208T mutations (htM2) (ligand, human, UniProt Q9NSA1 33-209, looked up, human FGF21 with Q201H and A208T; A Gly from the TEV site probably remains at the N-terminus (surmised); not shown: Trx, N-terminal, cleaved) DSSPLLQFGGQVRQRYLYTDDAQQTEAHLEIREDGTVGGAADQSPESLLQLKALKPGVIQILGVKTSRFLCQRPDGALYGSLHFDPEACSFRELLLEDGYNVYQSEAHGLPLHLPGNKSPHRDPAPRGPARFLPLPGLPPALPEPPGILAPQPPDVGSSDPLSMVGPSHGRSPSYTS , koff reported as 0.0013
